Below, each entry is listed alongside its reported MIC.
- System: Staphylococcus aureus
- procedure-details: Antibacterial activity methicillin resistant Staphylococcus aureus 2658 RCMB assessed as inhibition of bacterial growth by broth microdilution method
- Assay type: functional
Number in µg/mL, nothing else.

Here are 4 molecules together with their reported answers.
> print(dat)
                                        smi  measured.quantity  unit.annotation  numeric.value
1  Cc1nc(-c2ccc(C(C)(C)C)cc2)sc1-c1nnc(N2CC(O)C2)o1                MIC            µg/mL           3.12
2  Cc1nc(-c2ccc(C(C)(C)C)cc2)sc1-c1nnc(NN)o1                MIC            µg/mL           6.25
3  Cc1nc(-c2ccc(C(C)(C)C)cc2)sc1-c1nnc(NC(=N)N)o1                MIC            µg/mL           6.25
4  Cc1nc(-c2ccc(C(C)(C)C)cc2)sc1-c1nnc(NC(=N)N2CCOCC2)o1                MIC            µg/mL             25

// next item, MIC requested
stdin: Please look up its MIC: `Cc1nc(-c2ccc(C(C)(C)C)cc2)sc1-c1nnc(NC(=N)N2CCN(C)CC2)o1`
stdout: 25

###

- procedure-details: Elimination half life in ICR mouse at 50 mg/kg, iv
- Type: ADME, organism-based
- reported-conditions: in vivo, read-out: beta t1/2 (converted)
measured-quantity: half-life (h)
Respond with the bare value in h.

stdin: Which half-life reading was recorded for the molecule `Oc1ccc(-c2nc(-c3ccc(Oc4ccc(C(F)(F)F)cc4)cc3)no2)cc1` ?
stdout: 40

###

- procedure-details: Half-life in rat at 25 mg/kg, po
- Type: ADME, organism-based
- reported-conditions: in vivo
measured-quantity: half-life (h)
Numeric answer only, unit h assumed.

stdin: For the molecule `Cc1nc(-c2ccc(C(C)(C)C)cc2)sc1-c1nnc(N2CC(O)C2)o1` , what half-life is on record?
stdout: 5.5

###

- Test system: Staphylococcus aureus
- procedure-details: microbe, parasite or virus in culture
- reported-conditions: 032
- Description: Antibacterial activity against methicillin resistant Staphylococcus aureus 032 assessed as inhibition of bacterial growth by CLSI protocol based serial dilution method
measured-quantity: MIC

// solved cases for MIC follow
> print(dat)
                                   compound      result
1  Cc1nc(/C(=C\c2coc3ccc(F)cc3c2=O)c2ccc([N+](=O)[O-])cc2)no1  > 32 µg/mL
2  Cc1nc(/C(=C\c2coc3ccc(Cl)cc3c2=O)c2ccc([N+](=O)[O-])cc2)no1  > 32 µg/mL

Turning now to a further compound:
stdin: Reported MIC, compound CC1(C)S[C@@H]2[C@H](NC(=O)[C@H](N)c3ccccc3)C(=O)N2[C@H]1C(=O)O [AMPICILLIN] : ____
stdout: > 32 µg/mL

###

- Tested on: Staphylococcus aureus
- procedure-details: Antibacterial activity against methicillin resistant Staphylococcus aureus 181 assessed as inhibition of bacterial growth
- Type: functional
Property: MIC; scope: individual compounds

> print(dat)
                                 smi         assayed.system  measured.quantity       result
1  O=c1c(F)cnc2onc(-c3ccc(F)cc3F)n12  Staphylococcus aureus                MIC    100 µg/mL
2    O=c1c(F)cnc2onc(-c3ccccc3Cl)n12  Staphylococcus aureus                MIC  ≥ 125 µg/mL

Now look at this one.
stdin: Missing value: MIC, Staphylococcus aureus, entry `O=c1c(Br)cnc2onc(-c3ccc(Br)cc3)n12` . Fill in?
stdout: ≥ 125 µg/mL
